# collision cross section values compiled below
assay: collision cross section (TWIMS, N2) of ion [M+H]+; higher = larger gas-phase ion cross section; conditions: ionization: ESI positive; LC: HILIC, pH 3.0 ammonium formate

| molecule | measurement-unit | collision cross section |
| --- | --- | --- |
| O=C(O)[C@@H]1C[C@@H](O)CN1 [Hydroxyproline] | Å² | 125.85 |
| Nc1nc(=O)c2nc(CNc3ccc(C(=O)N[C@@H](CCC(=O)O)C(=O)O)cc3)cnc2[nH]1 | Å² | 196.77 |
| C[N+](C)(C)C[C@H](O)CC(=O)O | Å² | 137.38 |
| N[C@@H](CCC(=O)N[C@@H](CSSC[C@H](NC(=O)CC[C@H](N)C(=O)O)C(=O)NCC(=O)O)C(=O)NCC(=O)O)C(=O)O | Å² | 226.92 |
| Nc1ccccc1C(=O)C[C@H](N)C(=O)O | Å² | 146.07 |
| NCCCCNCCCN | Å² | 135.15 |
| O=C(O)c1cccnc1 | Å² | 122.92 |
| Nc1ncnc2c1ncn2[C@@H]1O[C@H](CO)[C@@H](O)[C@H]1O | Å² | 155.89 |
| N[C@@H](CSSC[C@H](N)C(=O)O)C(=O)O | Å² | 146.43 |
| NCCC(=O)N[C@@H](Cc1cnc[nH]1)C(=O)O | Å² | 151.65 |
| CCCCC/C=C\C/C=C\C/C=C\C/C=C\CCCC(=O)O | Å² | 178.98 |
| N[C@@H](Cc1cnc[nH]1)C(=O)O | Å² | 131.08 |
| Oc1ncnc2nc[nH]c12 | Å² | 125.05 |
| NCCC[C@H](N)C(=O)O | Å² | 129.31 |
| O=C(O)CNC(=O)c1ccccc1 | Å² | 138.49 |
| CC[C@H](C)[C@H](N)C(=O)O | Å² | 133.13 |
| O=C(O)CCCC[C@@H]1SC[C@@H]2NC(=O)N[C@@H]21 | Å² | 148.62 |
| Nc1ncnc2c1ncn2[C@@H]1O[C@@H]2COP(=O)(O)O[C@H]2[C@H]1O | Å² | 174.12 |
| Cc1cc2nc3c(=O)[nH]c(=O)nc-3n(C[C@H](O)[C@H](O)[C@H](O)CO)c2cc1C | Å² | 182.66 |
| N[C@@H](Cc1ccc(O)cc1)C(=O)O | Å² | 141.09 |
